The measured values listed here are drawn from patent US20110230406A1.

# target.under.test: T1, biotinylated BMP-2 (R&D Systems, Item number 355-BM/CF) (human, UniProt P12643 283-396, biotinylated (sites not given))
# T1 construct: Bought protein, biotinylated, captured on streptavidin plates (phage ELISA) or streptavidin donor beads (ALPHA); also called bone morphogenic protein-2
# assay.procedure: mutant phage ELISA titration on BMP-2 by the procedure of Example 3
observable: binding result

AGRDSFNLLTSSSSPST [SEQ ID NO: 31] | binds
AGRDSFNLLTSSPLSSS [SEQ ID NO: 32] | binds
